Measured attribute: melting point

{"columns": ["Compound", "Measured attribute", "Reported value"],
 "data": [
  ["CCCCc1cc2c(cc1/C=C/c1ccc(C(=O)O)cc1)C(C)(C)CCCC2", "melting point", "81 to 83 °C"],
  ["CCCCCCCOc1cc2c(cc1/C=C/c1ccc(C(=O)O)cc1)[C@]1(C)CCC[C@@]2(C)[C@@H]1O (racemic)", "melting point", "89 to 90 °C"],
  ["CCCCc1cc2c(cc1/C=C/c1ccc(C(=O)O)cc1)CCCCC2(C)C", "melting point", "184 to 186 °C"],
  ["C/C=C/COc1cc2c(cc1/C=C/c1ccc(C(=O)O)cc1)C(C)(C)CCC2(C)C", "melting point", "178 to 180 °C"],
  ["CCCCCCCCc1cc2c(cc1/C=C/c1ccc(C(=O)O)cc1)CCC(C)(C)CC2", "melting point", "179.5 to 180.5 °C"]
]}

Identify measured melting point associated with C=CCOc1cc2c(cc1/C=C/C=C/C(C)=C/C(=O)O)C(C)(C)CCC2(C)C
193 to 194 °C

Identify measured melting point associated with CCCCOc1cc2c(cc1/C=C/C=C/C(C)=C/C(=O)O)[C@]1(C)CCC[C@@]2(C)[C@@H]1O (racemic)
176 to 178 °C

Identify measured melting point associated with CCCCCc1cc2c(cc1/C=C/c1ccc(C(=O)O)cc1)C(C)(C)CCC2(C)C
173 to 174 °C

Identify measured melting point associated with CCCCCCc1cc2c(cc1/C=C/c1ccc(C(=O)O)cc1)C(C)(C)CCC2(C)C
134 to 136 °C

Identify measured melting point associated with CCCCCC(=O)c1cc2c(cc1/C=C/c1ccc(C(=O)O)cc1)C(C)(C)CCC2(C)C
118 to 119 °C

Identify measured melting point associated with CCCCCc1cc2c(cc1C#C/C=C/C(C)=C/C(=O)O)C(C)(C)CCC2(C)C
155 to 156 °C

Identify measured melting point associated with CCCCCOc1cc2c(cc1/C=C/c1ccc(C(=O)O)cc1)C(C)(C)CCC2(C)C
148 to 149 °C
